- TEST_SYSTEM: human lung tryptase
- MEASUREMENT_DESCRIPTION: β-Tryptase In-Vitro Enzyme Assay
- ASSAY_CONDITIONS: human lung tryptase 1 nM, substrate H-D-HHT-Ala-Arg-pNa 500 μM, pH 7.4, room temperature
PROPERTY_MEASURED: IC50 (nM)
Enter your answer as a number in nM; do not include the unit.

NCc1ccc2c(c1)C1(CCN(C(=O)Cc3cccc(Br)c3)CC1)CO2 [Cpd 87] : 1700
COCCOc1cccc(/C=C/C(=O)N2CCC3(CC2)COc2ccc(CN)cc23)c1 [Cpd 291] : 400
CCCc1ccc(OCc2ccc(C(=O)N3CCC4(CC3)COc3ccc(CN)cc34)o2)c(OC)c1 [Cpd 212] : 370
NCc1ccc2c(c1)C1(CCN(C(=O)c3ccc(OCc4ccccc4)cc3)CC1)CO2 [Cpd 76] : 420
NCc1ccc2c(c1)C1(CCN(C(=O)NCc3ccccc3)CC1)CO2 [Cpd 263] : 5100

Entry NCc1ccc2c(c1)C1(CCN(C(=O)/C=C\c3c[nH]cn3)CC1)CO2 [Cpd 243] — recorded IC50 = 3100

Entry NCc1ccc2c(c1)C1(CCN(C(=O)/C=C/c3c(F)cccc3F)CC1)CO2 [Cpd 195] — recorded IC50 = 120
